Source: ChEMBL document CHEMBL1151685

Test system: Escherichia coli
Test Description: Antibacterial activity against Escherichia coli ATCC 25922 after 24 hrs by microdilution broth method
Type: functional
Details: ATCC 25922, 24 h
Property Label: MBC (µg/mL)
Reply numerically in µg/mL, unit not repeated.

Would you please look over these solved cases?
Test Smiles	Unit Name	MBC
O=C(CCc1ccccc1O)c1ccccc1	µg/mL	2000
O=C(CCc1ccc(O)cc1)c1c(O)cc(O)cc1O	µg/mL	1000
COc1ccc(C(=O)/C=C/c2ccccc2)cc1OC	µg/mL	1000

Supply reported MBC belonging to this molecule: COc1ccccc1/C=C/C(=O)c1cc(OC)c(OC)cc1OC
2000

Supply reported MBC belonging to this molecule: COc1ccc(C(=O)/C=C/c2ccccc2O)cc1OC
2000

Supply reported MBC belonging to this molecule: CC(C)=CCC/C(C)=C\Cc1c(O)ccc(C(=O)/C=C/c2ccc(O)c(CC=C(C)C)c2)c1O
2000

Supply reported MBC belonging to this molecule: COc1ccc(C(=O)/C=C/c2ccccc2)c(O)c1CC=C(C)C
2000

Supply reported MBC belonging to this molecule: COc1cc(C(=O)CCc2ccccc2)c(OC)c(CC=C(C)C)c1OC
2000

Supply reported MBC belonging to this molecule: CC(C)=CCC/C(C)=C\Cc1c(O)ccc(C(=O)/C=C/c2ccc(O)cc2)c1O
2000

Supply reported MBC belonging to this molecule: CC(C)=CCc1c(O)ccc(C(=O)/C=C/c2ccccc2)c1O
2000

Supply reported MBC belonging to this molecule: COc1ccc(C(=O)/C=C/c2cccc(O)c2)c(O)c1CC=C(C)C
2000

Supply reported MBC belonging to this molecule: O=C(/C=C/c1ccc(O)cc1)c1ccc(O)cc1O
2000

Supply reported MBC belonging to this molecule: COc1cc(OC)c(C(=O)/C=C/c2ccc3c(c2)OCO3)c(OC)c1OC
2000

Supply reported MBC belonging to this molecule: CC1(C)C=Cc2c(ccc(C(=O)/C=C/c3ccccc3)c2O)O1
1000

* * *

Measured MIC, listed per entry.
Tested on: Staphylococcus aureus
Test Description: Antibacterial activity against Staphylococcus aureus ATCC 25923 after 24 hrs by microdilution broth method
Assay type: functional
Details: ATCC 25923, 24 h
Reply numerically in µg/mL, unit not repeated.

Molecule	Study System	MIC [µg/mL]
O=C(CCc1ccccc1O)c1ccccc1	Staphylococcus aureus	500
COc1ccc(C(=O)/C=C/c2ccccc2O)cc1OC	Staphylococcus aureus	1000

Supply reported MIC belonging to this molecule: COc1cc(OC)c(OC)cc1/C=C/C(=O)c1ccc(OC)c(OC)c1
2000

Supply reported MIC belonging to this molecule: CC(C)=CCC/C(C)=C\Cc1c(O)ccc(C(=O)/C=C/c2ccc(O)c(CC=C(C)C)c2)c1O
31.2

Supply reported MIC belonging to this molecule: COc1ccccc1/C=C/C(=O)c1cc(OC)c(OC)cc1OC
1000

Supply reported MIC belonging to this molecule: O=C(/C=C/c1ccc(O)cc1)c1ccc(O)cc1O
62.5

Supply reported MIC belonging to this molecule: COc1ccc(C(=O)/C=C/c2ccccc2)cc1OC
1000

Supply reported MIC belonging to this molecule: CC1(C)C=Cc2cc(C(=O)/C=C/c3ccccc3)c(O)cc2O1
2000

Supply reported MIC belonging to this molecule: COc1ccc(/C=C/C(=O)c2c(OC)cc(OC)c(OC)c2OC(C)=O)cc1
2000
